Entry source: ChEMBL document CHEMBL3217743

target: 11-beta-hydroxysteroid dehydrogenase 1 (Homo sapiens, UniProt P28845); experiment: Inhibition of 11beta-HSD1 in human adipocytes assessed as conversion of [3H]-cortisone to [3H]-cortisol by scintillation counting analysis; type: cell-based
Sequence (P28845 whole entry): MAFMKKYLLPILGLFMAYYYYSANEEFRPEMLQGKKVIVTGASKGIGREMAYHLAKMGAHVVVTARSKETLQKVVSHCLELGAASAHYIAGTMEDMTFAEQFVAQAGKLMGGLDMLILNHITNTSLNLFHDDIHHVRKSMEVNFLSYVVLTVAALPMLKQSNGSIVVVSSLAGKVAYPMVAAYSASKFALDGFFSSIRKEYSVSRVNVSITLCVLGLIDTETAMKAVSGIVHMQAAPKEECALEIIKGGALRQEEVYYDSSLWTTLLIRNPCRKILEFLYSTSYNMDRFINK
property measured: pIC50
FYI, pIC50 means -log10 of a concentration in mol per litre.

## Task Quote pIC50 with test system 11-beta-hydroxysteroid dehydrogenase 1 (Homo sapiens, UniProt P28845) for `CSc1nc(N2C[C@@H]3[C@H](C2)[C@H]3C(=O)O)ccc1C(=O)NC12CC3CC(CC(C3)C1)C2`
## Result 8.40

---

experiment: in vivo; conditions: rat
property measured: bioavailability
Answer with the value and then the unit.

CCCSc1nc(N2CCC(C(=O)O)C2)ccc1C(=O)NC1CCCCC1 (centres undefined) : 52%
CCCSc1nc(N2C[C@@H]3[C@H](C2)[C@H]3C(=O)O)ccc1C(=O)NC1CCCCC1 : 80%
O=C(N[C@H]1C2CC3CC1C[C@](O)(C3)C2)c1ccc(N2C[C@@H]3[C@H](C2)[C@H]3C(=O)O)nc1SC1CCCC1 : 57%

Turning now to a further record.
## Task Identify measured bioavailability associated with CCCSc1nc(N2CCCC(C3(C(=O)O)CC3)C2)ccc1C(=O)NC1CCCCC1 (centres undefined)
## Result 71%

---

experiment: Aqueous solubility of crystalline form of compound in phosphate buffer at pH 7.4 after 24 hrs by LC-UV analysis; type: physicochemical
property measured: solubility thermodynamic at 24 h

## Task Identify measured solubility thermodynamic at 24 h associated with `CSc1nc(N2C[C@@H]3[C@H](C2)[C@H]3C(=O)O)ccc1C(=O)NC12CC3CC(CC(C3)C1)C2`
## Result > 3000 µM

---

molecular target: Voltage-gated inwardly rectifying potassium channel KCNH2 (Homo sapiens)
Sequence (Q12809 whole entry): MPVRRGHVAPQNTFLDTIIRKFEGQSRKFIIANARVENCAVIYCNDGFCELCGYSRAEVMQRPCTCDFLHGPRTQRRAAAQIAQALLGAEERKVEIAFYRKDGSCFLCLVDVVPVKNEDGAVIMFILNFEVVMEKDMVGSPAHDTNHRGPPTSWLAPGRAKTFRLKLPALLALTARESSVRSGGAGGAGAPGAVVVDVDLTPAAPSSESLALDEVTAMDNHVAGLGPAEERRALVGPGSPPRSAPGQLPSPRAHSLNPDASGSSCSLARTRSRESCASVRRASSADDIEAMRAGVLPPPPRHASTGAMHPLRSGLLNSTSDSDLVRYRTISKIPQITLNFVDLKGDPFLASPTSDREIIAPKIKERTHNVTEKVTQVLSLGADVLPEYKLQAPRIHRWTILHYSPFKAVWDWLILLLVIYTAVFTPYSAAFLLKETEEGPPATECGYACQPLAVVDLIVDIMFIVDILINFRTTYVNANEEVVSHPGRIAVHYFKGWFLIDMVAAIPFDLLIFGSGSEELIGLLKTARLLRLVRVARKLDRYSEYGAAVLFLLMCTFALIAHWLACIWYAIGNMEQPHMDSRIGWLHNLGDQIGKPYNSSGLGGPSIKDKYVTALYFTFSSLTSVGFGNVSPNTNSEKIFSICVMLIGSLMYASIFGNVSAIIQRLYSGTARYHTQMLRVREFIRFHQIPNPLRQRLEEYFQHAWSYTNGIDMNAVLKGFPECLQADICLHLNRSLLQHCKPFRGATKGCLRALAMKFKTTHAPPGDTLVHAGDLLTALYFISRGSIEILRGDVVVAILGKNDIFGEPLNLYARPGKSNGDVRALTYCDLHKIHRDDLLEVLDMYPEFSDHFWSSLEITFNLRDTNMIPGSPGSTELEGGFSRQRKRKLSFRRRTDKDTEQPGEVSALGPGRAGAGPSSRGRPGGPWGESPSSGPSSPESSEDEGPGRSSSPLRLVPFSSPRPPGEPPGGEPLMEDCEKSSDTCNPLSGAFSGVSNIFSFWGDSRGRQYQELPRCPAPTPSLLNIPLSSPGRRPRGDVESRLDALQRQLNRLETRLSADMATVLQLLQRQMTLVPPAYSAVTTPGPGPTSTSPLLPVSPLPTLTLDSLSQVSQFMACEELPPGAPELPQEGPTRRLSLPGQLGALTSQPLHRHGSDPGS
pIC50: −log10 of the molar value.
property measured: pIC50

## Task Identify measured pIC50 associated with `CSc1nc(N2C[C@@H]3[C@H](C2)[C@H]3C(=O)O)ccc1C(=O)NC12CC3CC(CC(C3)C1)C2`
## Result < 4.52

---

assay: in vivo; conditions: rat
property measured: bioavailability (%)
The response must be a number in % with no trailing unit.

// worked examples, bioavailability included
CCCSc1nc(N2CCCC(C(C)(C)C(=O)O)C2)ccc1C(=O)NC1CCCCC1 (stereo not given) : 84
CCCSc1nc(N2CCC[C@@H](CC(=O)NS(C)(=O)=O)C2)ccc1C(=O)NC1CCCCC1 : 5
CCCSc1nc(N2CC[C@H](CC(=O)O)C2)ccc1C(=O)NC1CCCCC1 : 96
CCCSc1nc(N2CCC[C@@H](CC(=O)O)C2)ccc1C(=O)NC1CCCCC1 : 66

Turning now to a further record.
## Task Identify measured bioavailability associated with `CCCSc1nc(N2C[C@@H]3[C@H](C2)[C@H]3C(=O)O)ccc1C(=O)N[C@H]1C2CC3CC1C[C@](O)(C3)C2`
## Result 48

---

test: Fraction unbound in dog plasma by equilibrium dialysis technique; type: ADME, cell-free, Canis lupus familiaris
property measured: fraction unbound
Write no unit; give the number alone.

## Task Identify measured fraction unbound associated with `CSc1nc(N2C[C@@H]3[C@H](C2)[C@H]3C(=O)O)ccc1C(=O)NC12CC3CC(CC(C3)C1)C2`
## Result 0.015

---

assay: Volume of distribution at steady state in dog at 1 to 3 mg/kg; type: ADME, organism-based, Canis lupus familiaris; design: dose 1-3 mg/kg; details: in vivo, read-out: Vdss
property measured: Vd
Answer with the value and then the unit.

## Task Identify measured Vd associated with `CSc1nc(N2C[C@@H]3[C@H](C2)[C@H]3C(=O)O)ccc1C(=O)NC12CC3CC(CC(C3)C1)C2`
## Result 0.7 L/kg

---

target: CYP2C9 (Homo sapiens, UniProt P11712); assay: Inhibition of CYP2C9 (unknown origin) at 10 uM relative to control; type: ADME
Sequence (P11712 whole entry): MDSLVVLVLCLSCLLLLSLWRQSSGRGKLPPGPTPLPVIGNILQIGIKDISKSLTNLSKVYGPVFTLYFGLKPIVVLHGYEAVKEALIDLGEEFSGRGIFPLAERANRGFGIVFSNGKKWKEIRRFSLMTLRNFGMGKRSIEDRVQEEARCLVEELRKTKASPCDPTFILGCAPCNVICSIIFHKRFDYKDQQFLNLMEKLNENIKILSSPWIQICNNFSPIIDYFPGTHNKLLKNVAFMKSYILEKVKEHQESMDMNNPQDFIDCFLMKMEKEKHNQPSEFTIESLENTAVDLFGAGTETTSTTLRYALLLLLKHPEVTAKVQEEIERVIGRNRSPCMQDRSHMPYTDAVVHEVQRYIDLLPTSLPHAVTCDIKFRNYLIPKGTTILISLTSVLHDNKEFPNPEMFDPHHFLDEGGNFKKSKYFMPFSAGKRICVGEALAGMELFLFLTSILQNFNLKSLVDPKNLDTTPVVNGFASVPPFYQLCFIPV
property measured: inhibition at 10 µM

## Task Quote inhibition at 10 µM with test system CYP2C9 (Homo sapiens, UniProt P11712) for `CSc1nc(N2C[C@@H]3[C@H](C2)[C@H]3C(=O)O)ccc1C(=O)NC12CC3CC(CC(C3)C1)C2`
## Result < 25%

---

assay: Half life in rat at 1 to 3 mg/kg, po; type: ADME, organism-based; set-up: dose 1-3 mg/kg, route oral; conditions: in vivo
property measured: half-life (h)
The response must be a number in h with no trailing unit.

## Task Identify measured half-life associated with `CSc1nc(N2C[C@@H]3[C@H](C2)[C@H]3C(=O)O)ccc1C(=O)NC12CC3CC(CC(C3)C1)C2`
## Result 4.3

---

test: Octanol-buffer partition coefficient, log D of the compound at pH 7.4 after 30 mins by shake-flask method; format: physicochemical
Each entry below carries its recorded logD at 0.5 h.
Write no unit; give the number alone.

O=C(N[C@H]1C2CC3CC1C[C@](OC(F)F)(C3)C2)c1ccc(N2C[C@@H]3[C@H](C2)[C@H]3C(=O)O)nc1SC1CCCC1 : 3.4
CCCSc1nc(N2CCCC(C3(C(=O)O)CC3)C2)ccc1C(=O)NC1CCCCC1 (configuration not stated) : 3.5
CCCSc1nc(N2CC[C@H](CC(=O)O)C2)ccc1C(=O)NC1CCCCC1 : 1.7
CCCSc1nc(N2C[C@@H]3[C@H](C2)[C@H]3C(=O)O)ccc1C(=O)NC1CCCCC1 : 1.8

## Task Identify measured logD at 0.5 h associated with `CSc1nc(N2C[C@@H]3[C@H](C2)[C@H]3C(=O)O)ccc1C(=O)NC12CC3CC(CC(C3)C1)C2`
## Result 2.1

## Task Identify measured logD at 0.5 h associated with CCCSc1nc(N2CCC(C(=O)O)C2)ccc1C(=O)NC1CCCCC1 (configuration not stated)
## Result 1.1

## Task Identify measured logD at 0.5 h associated with O=C(O)[C@H]1[C@@H]2CN(c3ccc(C(=O)N4CCC(c5cccnc5)C4)c(SC4CCCC4)n3)C[C@@H]21 (some centres not stated)
## Result 1.2

## Task Identify measured logD at 0.5 h associated with `CCCSc1nc(N2CCC[C@@H](CC(=O)NS(C)(=O)=O)C2)ccc1C(=O)NC1CCCCC1`
## Result 1.6

## Task Identify measured logD at 0.5 h associated with `O=C(N[C@H]1C2CC3CC1C[C@](O)(C3)C2)c1ccc(N2C[C@@H]3[C@H](C2)[C@H]3C(=O)O)nc1SC1CCCC1`
## Result 1.5

## Task Identify measured logD at 0.5 h associated with CCCSc1nc(N2CCCC(C(C)(C)C(=O)O)C2)ccc1C(=O)NC1CCCCC1 (configuration not stated)
## Result 3.3

## Task Identify measured logD at 0.5 h associated with `CCCSc1nc(N2CCC[C@@H](Cc3nnn[nH]3)C2)ccc1C(=O)NC1CCCCC1`
## Result 2.4

## Task Identify measured logD at 0.5 h associated with `CCCSc1nc(N2C[C@@H]3[C@H](C2)[C@H]3C(=O)O)ccc1C(=O)N[C@H]1C2CC3CC1C[C@](O)(C3)C2`
## Result 0.8

---

assay: Fraction unbound in mouse plasma by equilibrium dialysis technique; type: ADME, cell-free
property measured: fraction unbound
Write no unit; give the number alone.

## Task Identify measured fraction unbound associated with `CSc1nc(N2C[C@@H]3[C@H](C2)[C@H]3C(=O)O)ccc1C(=O)NC12CC3CC(CC(C3)C1)C2`
## Result 0.023

---

assay: Plasma clearance in rat at 1 to 3 mg/kg; assay type: ADME, organism-based; parameters: dose 1-3 mg/kg
property measured: clearance (mL/min/kg)
The response must be a number in mL/min/kg with no trailing unit.

## Task Identify measured clearance associated with `CSc1nc(N2C[C@@H]3[C@H](C2)[C@H]3C(=O)O)ccc1C(=O)NC12CC3CC(CC(C3)C1)C2`
## Result 6

---

experiment: Clearance in rat hepatocytes measured per 10^6 cells; assay type: ADME, cell-based, Hepatocyte; settings: read-out: CLH
Each entry below carries its recorded hepatocyte CLint.
The response must be a number in µL/min/1e6 cells with no trailing unit.

CSc1nc(N2C[C@@H]3[C@H](C2)[C@H]3C(=O)O)ccc1C(=O)NC12CC3CC(CC(C3)C1)C2 : 6
CCCSc1nc(N2CCCC(C3(C(=O)O)CC3)C2)ccc1C(=O)NC1CCCCC1 (stereo not given) : 15
O=C(O)[C@H]1[C@@H]2CN(c3ccc(C(=O)N4CCC(c5cccnc5)C4)c(SC4CCCC4)n3)C[C@@H]21 (stereo not given in full) : 20

Turning now to a further record.
## Task Identify measured hepatocyte CLint associated with CCCSc1nc(N2CCCC(C(C)(C)C(=O)O)C2)ccc1C(=O)NC1CCCCC1 (stereo not given)
## Result 22

---

experiment: Clearance in rat; format: ADME, organism-based; settings: in vivo
Each entry below carries its recorded clearance.
The response must be a number in mL/min/kg with no trailing unit.

CCCSc1nc(N2CCC[C@@H](CC(=O)NS(C)(=O)=O)C2)ccc1C(=O)NC1CCCCC1 : 35
CCCSc1nc(N2C[C@@H]3[C@H](C2)[C@H]3C(=O)O)ccc1C(=O)N[C@H]1C2CC3CC1C[C@](O)(C3)C2 : 42
O=C(N[C@H]1C2CC3CC1C[C@](OC(F)F)(C3)C2)c1ccc(N2C[C@@H]3[C@H](C2)[C@H]3C(=O)O)nc1SC1CCCC1 : 9

## Task Identify measured clearance associated with O=C(O)[C@H]1[C@@H]2CN(c3ccc(C(=O)N4CCC(c5cccnc5)C4)c(SC4CCCC4)n3)C[C@@H]21 (some centres not stated)
## Result 18

## Task Identify measured clearance associated with `CSc1nc(N2C[C@@H]3[C@H](C2)[C@H]3C(=O)O)ccc1C(=O)NC12CC3CC(CC(C3)C1)C2`
## Result 6

## Task Identify measured clearance associated with `CCCSc1nc(N2C[C@@H]3[C@H](C2)[C@H]3C(=O)O)ccc1C(=O)NC1CCCCC1`
## Result 2

## Task Identify measured clearance associated with CCCSc1nc(N2CCC(C(=O)O)C2)ccc1C(=O)NC1CCCCC1 (configuration not stated)
## Result 3

## Task Identify measured clearance associated with `CCCSc1nc(N2CCC[C@@H](Cc3nnn[nH]3)C2)ccc1C(=O)NC1CCCCC1`
## Result 31

## Task Identify measured clearance associated with CCCSc1nc(N2CCCC(C3(C(=O)O)CC3)C2)ccc1C(=O)NC1CCCCC1 (configuration not stated)
## Result 8

## Task Identify measured clearance associated with `O=C(N[C@H]1C2CC3CC1C[C@](O)(C3)C2)c1ccc(N2C[C@@H]3[C@H](C2)[C@H]3C(=O)O)nc1SC1CCCC1`
## Result 43

## Task Identify measured clearance associated with `CCCSc1nc(N2CC[C@H](CC(=O)O)C2)ccc1C(=O)NC1CCCCC1`
## Result 2

## Task Identify measured clearance associated with CCCSc1nc(N2CCCC(C(C)(C)C(=O)O)C2)ccc1C(=O)NC1CCCCC1 (configuration not stated)
## Result 9
